Where these numbers come from: paper PMC7961039

biological target: Musashi-2 (MSI2) (UniProt Q96DH6 1-328); assay: EMSA; 10 mM HEPES pH 7.6, 20 mM KCl, 1 mM MgCl2, 1 mM DTT, 5% glycerol, protease inhibitors, 2 ug tRNA, 20 U SUPERase-In, 20 ul, 50 ng MSI2, 20 ng RNA, 25 C; 8% PAGE; details: protein: recombinant; label: 5'-32P
Sequence (Q96DH6 whole entry): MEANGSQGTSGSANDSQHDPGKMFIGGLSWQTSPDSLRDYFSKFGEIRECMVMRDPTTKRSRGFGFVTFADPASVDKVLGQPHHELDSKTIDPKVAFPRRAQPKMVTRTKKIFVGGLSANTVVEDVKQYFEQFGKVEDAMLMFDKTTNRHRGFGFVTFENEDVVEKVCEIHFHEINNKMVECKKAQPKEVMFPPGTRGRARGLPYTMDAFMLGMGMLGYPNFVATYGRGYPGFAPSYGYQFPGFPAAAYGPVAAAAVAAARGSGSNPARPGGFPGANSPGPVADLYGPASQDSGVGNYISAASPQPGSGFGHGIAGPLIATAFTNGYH
measurement-kind: binding result

So, GCAGAUGUUUUAGAAGGAAAAA (ssRNA) [EGFR Oligo 1 wt] ? Its binding result was binds

Reported binding result ( GUAGUAGUAGUAGUA (ssRNA) [Positive Control oligo] ) = binds

Briefly, binding result measured for UAACUUCGUUUUAGAAACAUUCAAG (ssRNA) [EGFR Oligo 2 wt] : binds
